test system: Enterococcus hirae; assay: Antimicrobial activity against Enterococcus hirae ATCC 10541 after 18 hrs by twofold dilution technique; format: functional; settings: ATCC 10541, 18 h
MIC for assorted molecules
measured attribute: MIC (µg/mL)

COCCOCCN/N=C/c1c(O)c(O)c(C(C)C)c2cc(C)c(-c3c(C)cc4c(C(C)C)c(O)c(O)c(/C=N/NCCOCCOC)c4c3O)c(O)c12 200
O=C(O)c1cn(C2CC2)c2cc(N3CCNCC3)c(F)cc2c1=O 0.5
COCCN/N=C/c1c(O)c(O)c(C(C)C)c2cc(C)c(-c3c(C)cc4c(C(C)C)c(O)c(O)c(/C=N/NCCOC)c4c3O)c(O)c12 100
Cc1cc2c(C(C)C)c(O)c(O)c(/C=N/N3CCN(CCO)CC3)c2c(O)c1-c1c(C)cc2c(C(C)C)c(O)c(O)c(/C=N/N3CCN(CCO)CC3)c2c1O 50
